Where these numbers come from: patent CN112679613A

# subject_of_test: 肝癌Huh-7细胞 (Huh-7癌细胞抗原; Huh-7细胞裂解蛋白)
# test_name: SPR, BIAcore T-200, 1:1 Langmuir model; binding to liver cancer Huh-7 cells
A collection of binders and their measured pKd
A value of pKd is the negative decimal logarithm of a concentration given in moles per litre.

Below are worked cases with known answers.
binder="4D3单克隆抗体 (antibody, V domains shown) VH: EVKLVESGGGLVKPGGSLKLSCAASGFTFSASAQSWVRQIPEKRLEWVALQSRSGSLYFPASVKQRFTISRDNARNICYLQMNSLRSDDTAMYYCARSREASGGYIDEWGQGTTLTVSS VL: DIVLTQSPASLAVSLGQRATISCSASESGGYYGTSLMNWYQQKPGQPPKLLIYSTSNEEKGVPARFSGSGSGTDFSLNIHPVEEDDIAMYFCGQSMKRPLRFGAGTKLELK" measure=pKd recorded_value=9.54
binder="3E2单克隆抗体 (antibody, V domains shown) VH: EVKLVESGGGLVKPGGSLKLSCAASGFTFSNSAMRWVRQIPEKRLEWVAVIRAGGSLYFPDRVKSRFTISRDNARNICYLQMNSLRSDDTAMYYCARGREADGGYFDYWGQGTTLTVSS VL: DIVLTQSPASLAVSLGQRATISCAASERREYYGTSLASWYQQKPGQPPKLLIYARSNVEYGVPARFSGSGSGTDFSLNIHPVEEDDIAMYFCGSSMKRPLRFGAGTKLELK" measure=pKd recorded_value=9.25

What value of measured pKd is listed for 5D7单克隆抗体 (antibody, V domains shown) VH: EVKLVESGGGLVKPGGSLKLSCAASGFTFSDAAMRWVRQIPEKRLEWVASISSLISLYFPDSVESRFTISRDNARNICYLQMNSLRSDDTAMYYCARGAEASGGYFDQWGQGTTLTVSS VL: DIVLTQSPASLAVSLGQRATISCSASEHPEYYGTSLMAWYQQKPGQPPKLLIYASSNVETGVPARFSGSGSGTDFSLNIHPVEEDDIAMYFCQVSMKRPLDFGAGTKLELK ?
9.35
